# tested.target: T1, human TREM2 (human, UniProt Q9NZC2 19-174, limits assumed)
# T1 construct: also called triggering receptor expressed on myeloid cells 2
# T1 sequence: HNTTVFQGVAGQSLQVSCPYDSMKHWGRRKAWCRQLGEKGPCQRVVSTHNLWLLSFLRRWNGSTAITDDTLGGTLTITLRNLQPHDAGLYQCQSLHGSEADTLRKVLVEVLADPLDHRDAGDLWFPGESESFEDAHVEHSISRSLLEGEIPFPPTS
# assay.notes: 1st screen, 10 nM Ab
endpoint.label: Binding Signal

Reference set, count: 2
V3 (antibody, V domains shown, also called 6E7 variant V3; LV-101/HV-101) VH: EVQLVQSGAEVKKPGESLKISCKGSGYSFASYWIAWVRQMPGKGLEWMGIIYPGDSDTRYSPSFQDQVTISADKSISTAYLQWSSLKASDTAMYFCARGRTFYYDSSDYFDYWGQGTLVTVSS VL: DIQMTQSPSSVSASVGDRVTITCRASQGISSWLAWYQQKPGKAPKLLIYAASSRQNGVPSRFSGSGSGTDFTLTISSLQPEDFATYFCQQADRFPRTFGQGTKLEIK | 1.97 fold over 6E7 parental antibody
V77 (antibody, V domains shown, also called 6E7 variant V77) VH: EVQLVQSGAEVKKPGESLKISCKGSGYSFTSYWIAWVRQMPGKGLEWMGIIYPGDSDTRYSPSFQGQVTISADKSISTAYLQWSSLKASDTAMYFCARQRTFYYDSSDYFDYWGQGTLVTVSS VL: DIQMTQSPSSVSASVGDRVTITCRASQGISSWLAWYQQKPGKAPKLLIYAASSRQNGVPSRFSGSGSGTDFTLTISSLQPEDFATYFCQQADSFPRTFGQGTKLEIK | 1.43 fold over 6E7 parental antibody

Reported Binding Signal for V72 (antibody, V domains shown, also called 6E7 variant V72) VH: EVQLVQSGAEVKKPGESLKISCKGSGYSFTSYWIGWVRQMPGKGLEWMGIIYPGDSDTRYSPSFQGQVTISADKSISTAYLQWSSLKASDTAMYFCARGRTFYYDSSDYFDYWGQGTLVTVSS VL: DIQMTQSPSSVSASVGDRVTITCRASQGISSWLAWYQQKPGKAPKLLIYAASSLVNGVPSRFSGSGSGTDFTLTISSLQPEDFATYFCQQADSYPRTFGQGTKLEIK was 3.64 fold over 6E7 parental antibody
